# system_tested: TLS/FUSΔR (UniProt P35637 1-506)
# Sequence (P35637 1-506, stated change not applied): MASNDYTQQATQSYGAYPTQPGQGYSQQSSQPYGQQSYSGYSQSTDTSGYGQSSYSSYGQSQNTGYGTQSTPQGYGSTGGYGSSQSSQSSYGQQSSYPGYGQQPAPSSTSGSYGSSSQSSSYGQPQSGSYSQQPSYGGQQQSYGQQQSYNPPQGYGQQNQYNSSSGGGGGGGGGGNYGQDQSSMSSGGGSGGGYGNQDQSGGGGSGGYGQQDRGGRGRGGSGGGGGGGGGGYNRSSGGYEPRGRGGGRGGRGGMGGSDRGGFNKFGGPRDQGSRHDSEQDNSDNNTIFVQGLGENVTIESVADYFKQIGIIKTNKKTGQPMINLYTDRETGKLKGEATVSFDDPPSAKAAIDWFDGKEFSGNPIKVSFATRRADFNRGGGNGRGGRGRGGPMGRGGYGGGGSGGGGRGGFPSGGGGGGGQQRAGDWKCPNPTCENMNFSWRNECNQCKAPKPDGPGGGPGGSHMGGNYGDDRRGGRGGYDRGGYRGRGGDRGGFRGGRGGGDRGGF
# protocol_text: EMSA
property: binding result

                                     binder  value_observed
0    AGGGTTAGTGTTAGTGTTAGGG (ssDNA) [ssDNA]      no binding
1  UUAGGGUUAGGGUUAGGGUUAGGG (structured_RNA) [TERRA]      no binding
2  UUAGGGUUAGUGUUAGUGUUAGGG (ssRNA) [ssRNA]      no binding
